# Measured on: Heat shock protein HSP 90-alpha (Homo sapiens)
# Experiment: Binding affinity to human recombinant HSP90alpha C-terminal domain (563 to 732 residues) expressed in Escherichia coli BL21(DE3) cells assessed as dissociation constant incubated for 15 mins by microscale thermophoresis analysis
pKd: −log10 of the molar value.
Measure: pKd

- Molecule: "CCC(C)n1c(C(=O)NC2CN=C(C(=O)NC)N(CC(C)C)C2=O)ncc(NC(=O)c2ncc(NC(=O)c3ccccc3)c(=O)n2Cc2ccc(OC)cc2)c1=O (stereo unspecified)"
  Test result: 5.47

###

# Test system: HCT-116
# Experiment: Antiproliferative activity against human HCT-116 cells assessed as reduction in cell viability incubated for 72 hrs by MTT assay
# Format: functional, cell-based
# Assay context: HCT-116, 72 h

- Mol smiles: "COc1ccc2c(c1OC)O[C@]13C(=O)N4O[C@H]5[C@H](O)C=C[C@@H](Cl)[C@@]5(O)C[C@@]4(SS[C@H]21)C(=O)N3C"
  IC50: "330 nM"

###

# System: MCF7
# Experiment: Antiproliferative activity against human MCF7 cells assessed as inhibition of cell proliferation by MTS assay
# Assay type: functional, cell-based
pIC50: −log10 of the molar value.

- Mol smiles: "Nc1c(C(=O)c2ccc(-c3ccc(Br)cc3)cc2)sc2nc3c(c(-c4ccccc4)c12)CNCC3"
  pIC50: 5.85
